test system: Inhibin beta A chain (activin A); experiment: INHBA (activin A) binders on microarrays, primary screen, biochemical, small-molecule microarray, 635 nm fluorescence scan (AID 1107); conditions: small-molecule microarray binding, higher = more signal;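 note: mouse activin A protein probed at 4.33 µg/mL on printed slides; score merges bound-protein fluorescence near 667 nm with spot signal-to-noise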
Endpoint: composite z-score
Numbers only.

The following compounds have reported results that may help.
COCCOC(=O)N1C(=O)[C@@]2(c3cc(C#Cc4ccc(OC)cc4)ccc31)[C@H](C(=O)N1CCN(c3ncccn3)CC1)[C@H]1C(=O)O[C@H](c3ccccc3)[C@H](c3ccccc3)N1[C@@H]2c1ccc(OCCO)cc1 1.03
CCOC(=O)CCN1C(=O)[C@H]2[C@H]3[C@H](O)[C@H](O)CC(=NOC[C@@H](O)COCc4ccco4)[C@H]3CC[C@H]2C1=O 0.0553

Moving on to the next compound.
Give Inhibin beta A chain (activin A) composite z-score for CO[C@@H]1COC(=O)[C@@H]2CCCN2C(=O)[C@@H](C)COC(=O)[C@H](COCc2ccccc2)NC(=O)CC=C[C@H]1C
-0.235

---

assay: basal MM1S mitochondrial membrane potential changes, profiling panel, cell-based, JC-1 fluorescence, 24 h, 100 nL compound (AID 1170); conditions: higher = more signal; note: test concentration not given here
Endpoint: z-score
Give bare numbers.

Please review the entries below; each comes with its answer.
Compound	Endpoint	Numeric readout
COCCOC(=O)N1C(=O)[C@@]2(c3ccccc31)[C@H](C(N)=O)[C@H]1C(=O)O[C@H](c3ccccc3)[C@H](c3ccccc3)N1[C@@H]2c1ccccc1OCCO	z-score	-0.0748
COc1ccc(O[C@H]2C=C[C@@H](c3ccccc3)O[C@@H]2CON=C[C@@H](C)[C@H](OCc2ccccc2)C(C)C)cc1	z-score	-0.486
O=C1[C@H]2[C@H]3[C@H](O)[C@H](O)CC(=NOCc4ccccc4)[C@@H]3CC[C@H]2C(=O)N1C1CCCCC1	z-score	-0.101
C[C@@H]1C=CCC(=O)OC[C@H](C)C(=O)OC[C@H]2O[C@H]1C=C[C@H]2O	z-score	-0.314
CCOC(=O)CCN1C(=O)[C@H]2[C@H]3[C@H](O)[C@H](O)CC(=NNC(=O)OCc4ccc(OC)cc4)[C@@H]3CC[C@H]2C1=O	z-score	-1.1

Hi! Can you tell me z-score for each of these compounds?
1. CN1C(=O)C2C=CC(C(O)C(c3ccccc3)c3ccccc3)N(NC(=O)OC(C)(C)C)C2C1=O (stereo not drawn)
2. CCN1C(=O)[C@H]2[C@H]3[C@H](O)[C@H](O)CC(=NOCc4ccccc4)[C@@H]3CC[C@H]2C1=O
3. C#CCCCON=C1C[C@@H](O)[C@@H](O)[C@@H]2[C@@H]3C(=O)N(Cc4ccccc4)C(=O)[C@@H]3CC[C@H]12

0.455
-0.758
-0.901

---

assay: E. coli acrAB mutant growth effects, primary screen, E. coli filamentation inducers, strain DRC39, OD650, 48 h (AID 1179);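 note: screen aims at cell division blockers that make cells filament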; settings: E. coli DRC39 delta-acrAB growth, higher = more signal, called active from +8 up or from −8 down
Please enter rule met where z-score is greater than or equal to 0.4, and rule not met where it is lower.

Given CO[C@@H]1COC(=O)[C@@H]2CCCN2C(=O)[C@@H](C)COC(=O)[C@H](COCc2ccccc2)NC(=O)CC=C[C@H]1C , state whether its z-score is at least 0.4.
rule not met

---

test: basal 3T3-L1 adipocyte mitochondrial potential changes, profiling panel, cell-based, JC-1 fluorescence, 3T3-L1 adipocytes, 24 h, 100 nL compound (AID 1168); conditions: JC-1 mitochondrial fluorescence, higher = more signal, called active from +8 up or from −8 down; note: test concentration not given here
Endpoint: z-score
Give bare numbers.

Compound	Numeric readout
COCCCNC(=O)[C@]1(Cc2ccccc2)N=C(c2ccc(OCCCO)cc2)O[C@@H]1c1ccccc1	0.492
CCN(CC)c1ccc(N2CC=CC34O[C@@H]5/C=C\CCC(C)OC(=O)C5[C@H]3C(=O)N(CCCO)[C@@H]4C2=O)cc1 (some centres not stated)	0.0214
CO[C@@H]1COC(=O)CC=C[C@@H](C)[C@H](OC)COC(=O)[C@H](COCc2ccccc2)NC(=O)CC=C[C@H]1C	-0.303
CCOC(=O)C[C@H]1[C@H](OC(=O)c2ccc(C(=O)c3ccccc3)cc2)[C@@H](NC(=O)c2ccc(-c3ccccc3)cc2)c2cc(OCCCO)ccc2N1C(=O)c1ccc2ccccc2n1	1.98
CC1(C)OCC(C(O)C2=CCCCC2=O)CO1 (configuration not stated)	-0.0827
CC(CCC(=O)OC[C@H]1O[C@H](C#Cc2ccccc2)C=C[C@@H]1Oc1ccc(C)cc1)=NOC[C@@H](O)COCc1ccco1	0.324
CCCCC(=C=CC[C@H](O)c1ccccc1OCCO)C[C@H](O)COCc1ccccc1	-0.643
COc1ccccc1CN1C(=O)c2ccccc2[C@@H](C(=O)NCC(F)(F)F)[C@@H]1c1ccc(CO)cc1	0.913
O=C1C[C@@H](O)[C@@H](O)[C@@H]2[C@@H]3C(=O)N(C4CCCCC4)C(=O)[C@@H]3CC[C@H]12	-0.364
CCN1C(=O)[C@H]2[C@H]3[C@H](O)[C@H](O)CC(=NO[C@@H]4O[C@H](CO)[C@@H](O)[C@H](O)[C@H]4O)[C@@H]3CC[C@H]2C1=O	0.725

List z-score for every entry below, keeping the order given.
1. O=C1[C@H]2[C@H]3[C@H](O)[C@H](O)CC(=NOCc4ccccc4)[C@@H]3CC[C@H]2C(=O)N1C1CCCCC1
2. CN1C(=O)C2C(C1=O)C1C=C(CCCO)C2C(c2ccc(CN3CCCC3)cc2)N1C (configuration not stated)
3. CC(=O)C[C@H](O)[C@@H](NC(=O)OC(C)(C)C)C(C)C
4. Cc1ccc(S[C@]2(C(=O)O)CC(=O)N(Cc3ccccc3)[C@@H]2c2ccc(CO)cc2I)cc1
5. NCCCCCNC(=O)[C@@H]1C[C@@H]2C(=O)N3CCC[C@H]3C(=O)N2[C@@H]1c1cccc(OCCO)c1

[-0.652, -0.319, -0.0163, -0.486, -0.812]

Please supply z-score for each of the following items, keeping them in order.
1. CO[C@H]1COC(=O)[C@H](C)NC(=O)[C@@H](C)COC(=O)CC=C[C@@H]1C
2. CC(CCN1CCCCc2nc(C)c(C)cc21)=NOC(C)CN1CCCc2nc(C)c(C)cc21 (configuration not stated)

1: -1.32; 2: -1.7

---

experiment: basal RPMI8226 mitochondrial membrane potential changes, profiling panel, cell-based, JC-1 fluorescence, 24 h, 100 nL compound (AID 1169); settings: RPMI8226 myeloma, JC-1 mitochondrial potential fluorescence, higher = more signal; note: test concentration not given here
Please respond with reported z-score for every item in the list.

Compound	z-score
COCC1=C2[C@@H](CCc3ccccc3)OB(O)C[C@@H]2n2c(=O)n(-c3ccccc3)c(=O)n2C1	0.164

Quick one: give me z-score for each item below, same order please.
1. CC(C)(C)OC(=O)CC[C@]1(C(N)=O)COC(c2ccc(OCCCO)cc2)=N1
2. C[C@@H](c1ccccc1)N1C(=O)[C@H]2[C@H]3[C@H](O)[C@H](O)CC(=NOC[C@@H](O)COCc4ccco4)[C@@H]3CC[C@H]2C1=O
3. COCCCNC(=O)[C@@]1(CCS(=O)(=O)c2ccccc2)N=C(c2ccc(OCCCO)cc2)O[C@H]1c1ccccc1

0.484
-0.287
0.243

Each compound below has a recorded value; state its z-score.
1. C[C@@H]1C=CCC(=O)OC[C@H](C)C(=O)N2CCC[C@H]2C(=O)OC1
2. C[C@@H]1C=CCC(=O)OC[C@H](C)C(=O)OC[C@H]2O[C@H]1C=C[C@H]2O
3. CC(C)(C)N1CC=CC23O[C@@H]4C=CCCOC(=O)C4[C@H]2C(=O)N(CCCCCO)[C@@H]3C1=O (stereo partly drawn)

0.363
-0.103
0.117

Requested field: z-score. Item: O=C1[C@H]2[C@H]3[C@H](O)[C@H](O)CC(=NO[C@@H]4O[C@H](CO)[C@@H](O)[C@H](O)[C@H]4O)[C@H]3CC[C@H]2C(=O)N1C1CCCCC1
0.368

---

assay: binders of probe aHhip on microarray, primary screen, stem cell growth factor project, biochemical, small-molecule microarray, fluorescence 635/667 (AID 1087); details: higher = more signal;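 note: score merges spot fluorescence at 667nm with spot signal to noise ratio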
Endpoint: composite z-score
Answers are plain numbers.

Past entries and their recorded results:
Compound	Endpoint	Numeric readout
CO[C@@H]1COC(=O)CC=C[C@@H](C)[C@@H]2C=C[C@@H](O)[C@@H](COC(=O)CC=C[C@H]1C)O2	composite z-score	-0.16
CCc1cc2c(nc1CC)CCN(CCC(C)=NOC[C@@H](O)COCc1ccco1)C2	composite z-score	0.382
C#CCCCON=C1C[C@@H](O)[C@@H](O)[C@@H]2[C@@H]3C(=O)N(Cc4ccccc4)C(=O)[C@@H]3CC[C@H]12	composite z-score	-0.169
C=C(/C(=C/C[C@@H](OC(=O)c1ccncc1)c1ccc(OCCO)cc1)c1cnc2ccccc2c1)C(C)C	composite z-score	0.0206

// each listed compound needs a value for composite z-score
1. COc1cccc([C@@H]2Oc3ccc(Br)cc3C(=O)[C@H]2O)c1
2. COC(=O)CC=C[C@H](C)[C@@H](OCc1ccccc1Br)C(C)C
3. O=C1NC(=O)C2C1C=CC(C(O)Cc1ccccc1)N2Nc1ccccn1 (stereo not drawn)

1. 0.235
2. -0.306
3. -0.0618

Which composite z-score is reported for this compound? O=C1[C@H]2[C@H]3[C@H](O)[C@H](O)CC(=NO[C@@H]4O[C@H](CO)[C@@H](O)[C@H](O)[C@H]4O)[C@@H]3CC[C@H]2C(=O)N1Cc1ccc2c(c1)OCO2
-0.201
